Some compounds, each annotated with its measured viability increase.
- experiment.notes: viability gain of MRP-1-high H69AR cells under doxorubicin, pilot screen, MRP-1 activator project, CellTiter-Glo, duplicate (AID 807);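 note: compound pretreatment 18-22 h then 72 h combined with doxorubicin; 0% = doxorubicin alone and 100% = vehicle without doxorubicin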
- details: H69AR viability with doxorubicin, CellTiter-Glo luminescence; at 10 µM; stronger effect = higher value
Write the value in % as a bare number.

Examples from the recorded data:
compound	reported.value
N#CCCN1CCN(S(=O)(=O)c2ccc(S(=O)(=O)N3CCOCC3)cc2)CC1	0.97
COCCn1c(SCCN2CCOCC2)nc2c1c(=O)[nH]c(=O)n2C	0.95
Cc1ccc(S(=O)(=O)N2CCC(C(=O)N[C@@H](C)C(=O)NC3CCCCC3)CC2)cc1	3.71
Nn1c(SCc2nc3ccccc3[nH]2)nnc1-c1cccnc1	-2.44
Cn1c(-n2c(CCN3C(=O)c4ccccc4C3=O)nc3ccccc3c2=O)nc2ccccc21	-4.94
Cc1c(NC(=O)C2CC=CCC2C(=O)O)c(=O)n(-c2ccccc2)n1C (stereo not drawn)	-0.87
Cn1cnnc1SCC(=O)c1ccc2c(c1)CCCC2	-1.07
CCn1c(C(C)NC(=O)c2cccs2)nc2ccccc21 (stereo not drawn)	-1.68
O=C(O)c1ccc(-n2cccc2)cc1O	-1.52
CCOC(=O)c1[nH]c2c(c1C)C(=O)CC(c1ccc(F)cc1)C2 (stereo not drawn)	-4.6

[in] Recorded viability increase for COc1ccc(N2CC(C(=O)NC3CC(C)(C)NC(C)(C)C3)CC2=O)cc1 (stereo not drawn) , please?
[out] 0.06

[in] Param item: CCC(=O)N1C(C(=O)O)CSC1c1ccc(OC)cc1 (stereo not drawn)
[out] -0.61

[in] Param item: O=C(Cn1c2c(c(-c3ccccc3)cc1=O)CCCC2)N1CCCCCC1
[out] -3.64

[in] Param item: Cc1cc(C)n2nc(SCC#N)nc2n1
[out] -2.41
